Answer each item with its documented absolute recovery.
test: absolute recovery over mixed-bed multilayer solid-phase extraction; higher = better recovery; conditions: surface water; enrichment method: SPE
One number for each entry, in %.

COc1ccc(C(=O)c2ccccc2)c(O)c1 [Benzophenon-3 (=2-Hydroxy-4-methoxybenzophenon)] ... 111
COc1nc(C)nc(N)n1 ... 112
CCC1OC(=O)C(C)C(OC2CC(C)(OC)C(O)C(C)O2)C(C)C(OC2OC(C)CC([N+](C)(C)[O-])C2O)C(C)(OC)CC(C)C(=O)C(C)C(O)C1(C)O (configuration not stated) [Clarithromycin-N-Oxide] ... 85.3
CCOCCN(C(=O)CCl)C(=C(C)C)c1ccccc1 ... 85.7
CC(C)c1nc(N(C)S(C)(=O)=O)nc(-c2ccc(F)cc2)c1C=CC(O)CC(O)CC(=O)[O-] (configuration not stated) ... 92.9
C[NH+](C)CCC(c1ccccc1)c1ccccn1 (configuration not stated) ... 93.7

Please state, for each entry, its recorded absolute recovery.
1. COc1cccc2c1C(=O)c1c(O)c3c(c(O)c1C2=O)CC(O)(C(O)CO)CC3OC1CC([NH3+])C(O)C(C)O1 (configuration not stated)
2. Cc1nn(-c2cc(NS(C)(=O)=O)c(Cl)cc2Cl)c(=O)n1C(F)F
3. CN1COCN(Cc2cnc(Cl)s2)C1=N[N+](=O)[O-]
4. CN(C)C(=O)NC1CCCCCCC1
5. CCc1ccc(CCOc2ccc(CC3SC(=O)[N-]C3=O)cc2)nc1 (configuration not stated)
6. CCOC(=O)NCCOc1ccc(Oc2ccccc2)cc1
7. COc1cc([N-]S(=O)(=O)c2ccc(N)cc2)nc(OC)n1
8. CC(=NC#N)N(C)Cc1ccc(Cl)nc1

Reply:
75.4
100
93.9
91.2
98.1
127
92
93.8

Please state, for each entry, its recorded absolute recovery.
1. CC1=NNC(=O)N(N=Cc2cccnc2)C1
2. COC=C(C(=O)OC)c1ccccc1Oc1cc(Oc2ccccc2C#N)ncn1
3. O=C([O-])c1cc(Oc2ccc(Cl)cc2Cl)ccc1[N+](=O)[O-]
4. COc1cc(OC)n2nc([N-]S(=O)(=O)c3c(C(F)(F)F)ccnc3OC)nc2n1
5. CS(=O)(=O)c1ccc(C(=O)[O-])c([N+](=O)[O-])c1
6. CN(C)C(=O)Nc1ccc(Cl)c(Cl)c1
7. COc1ccc2c(c1OC)C(=O)OC2C1c2c(cc3c(c2OC)OCO3)CC[NH+]1C (configuration not stated)
8. O=C(Nc1ccccc1)N(Cc1ccc(Cl)cc1)C1CCCC1

Reply:
1: 112; 2: 96; 3: 63.6; 4: 97.7; 5: 57.1; 6: 98.5; 7: 89.2; 8: 110

Please state, for each entry, its recorded absolute recovery.
1. OC(Cc1ccccc1Cl)(Cn1[nH]cnc1=S)C1(Cl)CC1 (configuration not stated)
2. N#Cc1c(Cl)c(Cl)c([O-])c(C(=[NH2+])[O-])c1Cl
3. CCOP(=O)(OCC)OCC
4. CCNc1nc(Cl)nc(NC(C)C)n1
5. CC[N-]S(=O)(=O)C(F)(F)C(F)(F)C(F)(F)C(F)(F)C(F)(F)C(F)(F)C(F)(F)C(F)(F)F
6. CC(=O)Nc1nnc(S([NH-])(=O)=O)s1 [Acetazolamide]

Reply:
94.5
99.6
87.7
98.1
57.6
95.6

* * *

test: absolute recovery over mixed-bed multilayer solid-phase extraction; higher = better recovery; settings: wastewater effluent; enrichment method: SPE
Answer each item with its documented absolute recovery.
Answers are plain numbers, in %.

Look over these answered cases.
Oc1cc(Cl)ccc1Oc1ccc(Cl)cc1Cl [Triclosan] ... 90
CC(CN1c2ccccc2CCc2ccccc21)C[NH+](C)C (centres undefined) [Trimipramin] ... 95.3

Please state, for each entry, its recorded absolute recovery.
1. O=C(OC1CC2CCC(C1)[N+]21CCCC1)C(O)(c1ccccc1)c1ccccc1 (centres undefined) [Trospium]
2. C#CCN1C(=O)COc2cc(F)c(N3C(=O)C4=C(CCCC4)C3=O)cc21 [Flumioxazin]

Reply:
1. 91.1
2. 91.6

Please state, for each entry, its recorded absolute recovery.
1. CC(C)c1c(C(=O)Nc2ccccc2)c(-c2ccccc2)c(-c2ccc(F)cc2)n1CCC(O)CC(O)CC(=O)[O-] (centres undefined) [Atorvastatin]
2. Cc1cncc(C(=O)[O-])c1 [5-Methylpyridine-3-carboxylic-acid]
3. O=C([O-])c1cc(Br)c([O-])c(Br)c1 [3-5-Dibromo-4-hydroxybenzoic-acid]
4. COc1ccc2c3c1OC1C(O)CCC4C(C2)[NH+](C)CCC341 (centres undefined) [Dihydrocodeine]
5. OCC(O)C[NH+]1CCN(c2ccccc2)CC1 (centres undefined) [Dropropizine]
6. CN(CC(=O)[O-])S(=O)(=O)C(F)(F)C(F)(F)C(F)(F)C(F)(F)C(F)(F)C(F)(F)C(F)(F)C(F)(F)F [N-MeFOSAA]
7. c1ccc(C2CN3CCSC3=[NH+]2)cc1 (centres undefined) [Levamisol]
8. COC(=O)N(OC)c1ccccc1COc1ccn(-c2ccc(Cl)cc2)n1 [Pyraclostrobin]

Reply:
[45.5, 90.9, 97.9, 94.1, 99.5, 95.4, 83.8, 91.5]

* * *

assay: absolute recovery over mixed-bed multilayer solid-phase extraction; higher = better recovery; details: nanopure water; enrichment method: SPE
Answer each item with its documented absolute recovery.
Give bare numbers, in %.

Look over these answered cases.
Cn1sccc1=O ... 12
CNC(=C[N+](=O)[O-])NCCSCc1ccc(C[N+](C)(C)[O-])o1 ... 50.9
CCC(=O)OC(Cc1ccccc1)(c1ccccc1)C(C)C[NH+](C)C (stereo not given) ... 85.3
CC1CC2C3CCC4=CC(=O)C=CC4(C)C3(F)C(O)CC2(C)C1(O)C(=O)CO (stereo not given) [Betamethasone] ... 93.8
CCNC(=O)C(C)OC(=O)Nc1ccccc1 (stereo not given) ... 94.2

Please state, for each entry, its recorded absolute recovery.
1. CC(C)(C)C(O)C(Oc1ccc(Cl)cc1)n1cncn1 (stereo not given)
2. CSc1nc(NC2CC2)nc(NC(C)(C)C)n1
3. CCNC(=O)NC(=O)C(C#N)=NOC
4. COc1ccc(NC(=O)N(C)C)cc1Cl
5. CC[NH+]1CCCC1CNC(=O)c1cc(S(=O)(=O)CC)c(N)cc1OC (stereo not given)

Reply:
[98.4, 101, 98.4, 104, 93.1]

* * *

assay: LC retention time (Atlantis T3, 5-95% MeOH gradient, 0.1% formic acid); higher = more retained / less polar
Answer each item with its documented LC retention time.
One number for each entry, in min.

Look over these answered cases.
Nc1ccc(S(=O)(=O)[O-])cc1 ... 3.46
CC(C)N(C(=O)CCl)c1ccccc1 ... 18.4
CC(C)OC(=O)C(C)(C)Oc1ccc(C(=O)c2ccc(Cl)cc2)cc1 ... 22.5
CCCCCCCCn1sccc1=O ... 20.3

Kindly consider the entry below.
Reported LC retention time for CC[NH+]1CCCC1CNC(=O)c1cc(S(N)(=O)=O)ccc1OC (stereo not given) was 8.45

* * *

assay: LC retention time (Atlantis T3, 5-95% MeOH gradient, 0.1% formic acid); higher = more retained / less polar
outcomeMeasure: LC retention time (min)
Numbers only, in min.

Look over these answered cases.
NC(=O)N1c2ccccc2C=Cc2ccccc21 [Carbamazepin] ... 17.6
CC(C)(C(=O)[O-])c1ccc(C(O)CCC[NH+]2CCC(C(O)(c3ccccc3)c3ccccc3)CC2)cc1 (stereo not given) [Fexofenadin] ... 15.7

Please state, for each entry, its recorded LC retention time.
1. CC(C)[NH2+]CC(O)COc1cccc2ccccc12 (stereo not given) [Propranolol]
2. O=C1CC(C(=O)[O-])CC(=O)C1=C([O-])C1CC1 (stereo not given) [Trinexapac (free acid)]
3. CC(C)(C)Nc1nc(N)nc(Cl)n1 [Terbutylazin-desethyl]

Reply:
14.4
16.6
17.5

* * *

assay: absolute recovery over vacuum-assisted evaporative concentration; higher = better recovery; conditions: wastewater effluent; enrichment method: VEC
Answer each item with its documented absolute recovery.
Answers are plain numbers, in %.

Look over these answered cases.
COc1cc(OC)n2nc([N-]S(=O)(=O)c3c(C(F)(F)F)ccnc3OC)nc2n1 [Pyroxsulam] ... 103
CC(=O)Nc1nnc(S([NH-])(=O)=O)s1 [Acetazolamide] ... 106
Nc1[nH]c2ccccc2[nH+]1 [2-Aminobenzimidazol] ... 103

Please state, for each entry, its recorded absolute recovery.
1. O=C([O-])C(c1ccccc1Cl)[NH+]1CCc2sccc2C1 (stereo not given) [Clopidogrel-Carboxylic-Acid]
2. CC(C)(Oc1ccc(C(=O)c2ccc(Cl)cc2)cc1)C(=O)[O-] [Fenofibric-acid]
3. C[NH+]1CCCC1c1cccnc1 (stereo not given) [Nicotine]
4. CCC(C)(C)C(=O)OC1=C(c2ccc(Cl)cc2Cl)C(=O)OC12CCCCC2 [Spirodiclofen]
5. CC(C)CC(C)(O)C#CC(C)(O)CC(C)C (stereo not given) [Surfynol-104A]

Reply:
103
106
76.9
77.8
75.3

Please state, for each entry, its recorded absolute recovery.
1. COc1nn(CSP(=S)(OC)OC)c(=O)s1 [Methidathion]
2. CCNc1nc(NCC)nc(OC)n1 [Simeton]

Reply:
1. 108
2. 101
